Ref: ChEMBL document CHEMBL1201862

- Test system: SF-539
- METHOD: NCI tumour cell line growth inhibition, 48 h
Active and inactive are the calls of the source. Rule as the data show it: active = GI50 up to about 1.1 µM and inactive = higher.
The reply should name one outcome from Y for active, N for inactive

# count of solved cases: 6
Cc1nc2[nH]ncn2c(=O)c1CCCl    N
CCC1(O)C(=O)OCc2c1cc1n(c2=O)Cc2cc3ccc(CO)cc3nc2-1 (stereo unspecified)    N
C=C1C(=O)O[C@@H]2/C=C(/C)[C@@H](OC(C)=O)C[C@@H](O)/C(C)=C\[C@@H](OC(=O)[C@]3(C)O[C@@H]3C)[C@@H]12    N
O=C1Cc2ccccc2N1/N=C\c1ccc([N+](=O)[O-])cc1    N
COc1ccc(/C=C2\N/C(=N/N)N=C2Cl)cc1    N
N#CC1=C(N)N2C(=O)/C(=C/c3ccccc3O)N=C2S1    N

Enquiry: Please let me know the test result on file for "C/C=C/[P+](c1ccccc1)(c1ccccc1)c1ccccc1" .
Return: N

Enquiry: Assay result, entry "CN1/C(=C\N=O)C(C)(C)N(O)C1(C)C" — outcome?
Return: N

Enquiry: Check the results log: what was the call for "CN(C)Cc1cc(C(=O)/C=C/c2ccc(Cl)cc2Cl)cc(CN(C)C)c1O" ?
Return: N

Enquiry: Record lookup: outcome of this test for Nc1ccccc1[S+]([O-])c1ccccc1 (stereo unspecified) ?
Return: N

Enquiry: State the result this test recorded for "CC(C)(C)N/N=C(/Cc1nc2c3c(ccc2nc1O)C(=O)c1ccccc1C3=O)C(=O)NC1=C(Cl)C(=O)c2ccccc2C1=O" .
Return: N

Enquiry: What is the recorded call for this compound in the test? "Cn1c(=O)n(C2(C)C[Se]C2)c2ccccc21"
Return: N

Enquiry: So what was the verdict on "O=C(NCCCCNCCCNC(=O)C(F)(F)F)C(F)(F)F" in this test?
Return: N

Enquiry: For "CC(C)(C)c1ccc(C(C)(C)C)c(N2C(=O)[C@@H]3[C@@H]4C=C[C@@H](C4)[C@]3(C)C2=O)c1" , which call appears in the assay record?
Return: N

Enquiry: Recorded call for C=C1C[C@H](O)[C@H]2C(C[Se]c3ccccc3)C(=O)O[C@@H]2[C@H]2[C@H](C)C(O)C[C@@H]12 (stereo partly specified) ?
Return: N

Enquiry: What is the recorded call for this compound in the test? "CC(C)(O)[C@H](CCO)O[Si](c1ccccc1)(c1ccccc1)C(C)(C)C"
Return: N

Enquiry: // outcome(item) with item = COC(O)C(=O)c1c2c(cc3c1CCC3)CCCC2 (stereo unspecified)
Return: N

Enquiry: Field: outcome | Entry: "COC(=O)NC12CC3CC(CC(F)(C3)C1)C2"
Return: N

Enquiry: Call for entry "CC(=O)N(C(C)=O)c1c(N)n(C)c(=O)[nH]c1=O" :
Return: N

Enquiry: Assay result, entry "COc1ccc2[nH]c3c(C)c4cc[n+](COC(=O)c5ccccc5)cc4c(C)c3c2c1" — outcome?
Return: Y

Enquiry: Called result for "Cn1c2ccc(C3=NCCN3)cc2c2cc(C3=NCCN3)ccc21"
Return: N
